assayed_target: T1, human DLL3 protein (human, UniProt Q9NYJ7 27-492, limits assumed)
T1 construct: Soluble human DLL3 protein used in BLI; also called Delta-like protein 3
T1 sequence (looked up): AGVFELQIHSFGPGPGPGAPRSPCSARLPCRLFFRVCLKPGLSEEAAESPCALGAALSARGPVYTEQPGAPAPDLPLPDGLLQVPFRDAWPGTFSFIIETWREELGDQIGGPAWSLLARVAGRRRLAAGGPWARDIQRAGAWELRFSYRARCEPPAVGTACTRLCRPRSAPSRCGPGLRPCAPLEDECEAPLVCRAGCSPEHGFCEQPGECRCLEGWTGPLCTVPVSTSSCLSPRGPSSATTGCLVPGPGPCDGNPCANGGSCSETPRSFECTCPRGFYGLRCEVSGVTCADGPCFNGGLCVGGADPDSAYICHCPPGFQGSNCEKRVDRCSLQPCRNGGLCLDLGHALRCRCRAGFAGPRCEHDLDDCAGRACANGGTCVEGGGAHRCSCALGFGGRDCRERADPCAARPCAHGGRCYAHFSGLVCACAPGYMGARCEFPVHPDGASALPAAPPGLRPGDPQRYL
assay_name: BLI, scFv-Fc against human DLL3 protein
Here, each record is paired with measured kon data.
Write the value in M⁻¹ s⁻¹ as a bare number.

Known results for binders:
Ab.71 scFv-human IgG Fc (Fc fusion, Tested as scFv-human IgG Fc; not shown: human IgG Fc) DIGMTQSPDSLAVSLGERATINCKSSQNVLPNSNKKHYLSWYQQKPGQPPKLLIYLASTRASGVPDRFSGSGSGTDFTLTISSLQAEDVAVYYCQQYYSSPPEWTFGQGTKVEIKGGGGSGGGGSGGGGSQVQLVESGGGVVQPGRSLRLSCVASGFTFSNCGMHWVRQAPGKGLEWVAIIWYDGNIKYYGDSVKGRFTISRDNSKNTLYLQMNSLRVEDTAVYYCGRHDYGGNSFDYWGQGTLVTVSS	591000
Ab.63 scFv-human IgG Fc (Fc fusion, Tested as scFv-human IgG Fc; not shown: human IgG Fc) QIVLTQSPGTLSLSPGERATLSCRASQSVTRGYLAWYQQKPGQAPRLLFYGASNRATDIPDRFSGSGSGTDFTLIISRLEPEDFAVYYCQQYGISPLTFGGGTKVEIKGGGGSGGGGSGGGGSQVQLHESGPGLVKPSETLSLTCTVSGASISSYYWSWIRQPPGKGLEWIGYIYYSGTTNFNPSLKSRVTISVDTSKNQFSLRLSSVTTADTAVYYCANLALTGFHFDYWGQGTLVTVSS	424000
Ab.67 scFv-human IgG Fc (Fc fusion, Tested as scFv-human IgG Fc; not shown: human IgG Fc) DVVVTQSPLSLPVTLGQPASISCRSSQSLVYSDGNTYLNWFQQRPGQSPRRLVYQVSNRDSGVPDRFSGSGSGTDFTLKISGMEAEDAGVYYCMQGTHWPHTFGQGTKLEIKGGGGSGGGGSGGGGSEVHLVESGGGLVQPGGSLKLSCAASGFIFSGSSMHWVRQASGKGLEWIGRIRNKANNYATSYGASVQGRFTMSRDDSKNTAYLQMNSLKAEDTAVYYCTYLSGEFWGQGTLVTVSS	534000

Note: attention shifts to another entry.
Request: Form field: reported kon of Ab.55 scFv-human IgG Fc (Fc fusion, Tested as scFv-human IgG Fc; not shown: human IgG Fc) EVVMTQSPLSLPVTLGQPASVSCRSSQSLLYSDGNTYLIWFQQRPGQSPRRLLYKLSTRDSGVPDRFSGSGSGTDFTLKISRVEAEDVGIYYCMQVTHWPYTFGQGTKLEIKGGGGSGGGGSGGGGSQVQLRESGPGLVKPSETLSLTCTVSGDSLKNSYWGWIRQPPGKGLEWIGYIYYSGTSSYNPSLESRVTFSADTSKNQFSLKLSSVTAADTAVYYCSREGSFDVWGRGTLVTVSS
Result: 320000
